Kindly supply the reported Pre-emergence action against DIGSA in % values for the records listed here.
test system: Digitaria sanguinalis (DIGSA); test: Pre-emergence herbicidal action against DIGSA; format: in vivo; settings: dosage 320 g/ha
One number for each entry, in %.

// solved cases for Pre-emergence action against DIGSA in % follow
compound	measured.target	Pre-emergence action against DIGSA in % / %
CCOC(=O)COc1nn(-c2nc(F)ccc2F)c(-c2ccc(F)nc2)c1C1CC1 [Example I-348]	Digitaria sanguinalis (DIGSA)	100
COC(=O)CN(C)C(=O)COc1nn(-c2ccccn2)c(-c2ccc(F)nc2)c1Br [Example I-114]	Digitaria sanguinalis (DIGSA)	90

State the recorded Pre-emergence action against DIGSA in % for every item in the following list.
1. CCOC(=O)[C@@H](C)Oc1nn(-c2nc(F)ccc2F)c(-c2cncc(F)c2)c1Cl [Example I-208]
2. CCOC(=O)COc1nn(-c2ccccn2)c(-c2ccnc(F)c2)c1Br [Example I-01]
3. O=C(O)COc1nn(-c2nc(F)ccc2F)c(-c2ccc(F)nc2)c1C1CC1 [Example I-302]
4. CCOC(=O)C(Oc1nn(-c2ccccn2)c(-c2ccc(F)nc2)c1Br)C(C)C (stereo not drawn) [Example I-349]
5. COC(=O)[C@@H](C)Oc1nn(-c2ncccc2F)c(-c2ccc(F)nc2)c1Br [Example I-05]
6. COC(=O)COc1nn(-c2ncccc2C(F)(F)F)c(-c2cncc(F)c2)c1Br [Example I-206]
7. C[C@@H](Oc1nn(-c2ccccn2)c(-c2ccc(Cl)nc2)c1Cl)C(=O)O [Example I-238]

[A]
1. 100
2. 100
3. 100
4. 90
5. 100
6. 90
7. 90

* * *

Kindly supply the reported Pre-emergence action against DIGSA in % values for the records listed here.
system: Digitaria sanguinalis (DIGSA); assay: Pre-emergence herbicidal action against DIGSA; type: in vivo; details: 80 g/ha, visual scoring after about 3 weeks vs untreated controls
One number for each entry, in %.

// solved cases for Pre-emergence action against DIGSA in % follow
COC(=O)COc1nn(-c2nc(F)ccc2F)c(-c2ccc(F)nc2)c1C1CC1 90
O=C(COc1nn(-c2ccccn2)c(-c2ccc(F)nc2)c1Cl)NS(=O)(=O)CC(F)(F)F 100
CCOC(=O)CN(C)S(=O)(=O)NC(=O)COc1nn(-c2ccccn2)c(-c2ccc(F)nc2)c1Br 100
COC(=O)[C@@H](C)Oc1nn(-c2nc(F)ccc2F)c(-c2cncc(F)c2)c1Cl 90

State the recorded Pre-emergence action against DIGSA in % for every item in the following list.
1. COC(=O)[C@@H](C)COC(=O)COc1nn(-c2ccccn2)c(-c2cncc(F)c2)c1Br
2. COC(=O)COc1nn(-c2nc(F)ccc2F)c(-c2cncc(F)c2)c1Cl
3. COC(=O)[C@@H](C)Oc1nn(-c2ccc(F)cn2)c(-c2ccc(F)nc2)c1Br
4. CCOC(=O)COc1nn(-c2ncccc2F)c(-c2cncc(F)c2)c1C1CC1

[A]
1. 90
2. 90
3. 100
4. 100

* * *

Kindly supply the reported Pre-emergence action against POLCO in % values for the records listed here.
system: Polygonum convolvulus (POLCO); assay: Pre-emergence herbicidal action against POLCO; assay type: in vivo; conditions: dosage 80 g/ha

compound	measured.target	assay.result
COC(=O)[C@H](C)COC(=O)COc1nn(-c2ccccn2)c(-c2cncc(F)c2)c1Cl [Example I-192]	Polygonum convolvulus (POLCO)	90%

State the recorded Pre-emergence action against POLCO in % for every item in the following list.
1. CCOC(=O)COc1nn(-c2ncccc2F)c(-c2ccc(F)nc2)c1Cl [Example I-38]
2. CCOC(=O)COc1nn(-c2ccccn2)c(-c2ccc(F)nc2)c1Br [Example I-02]
3. C[C@@H](Oc1nn(-c2nc(F)ccc2F)c(-c2ccc(F)nc2)c1Br)C(=O)O [Example I-333]

[A]
["90%", "80%", "90%"]

* * *

tested on: Alopecurus myosuroides (ALOMY); assay: Post-emergence herbicidal action against ALOMY; assay type: in vivo; conditions: 320 g/ha, visual rating about 3 weeks after treatment vs untreated controls (100% = plants have died, 0% = like control plants)
Kindly supply the reported Post-emergence action against ALOMY in % values for the records listed here.
Could you write the number and then its unit?

CCOC(=O)[C@@H](C)Oc1nn(-c2ncccc2F)c(-c2cncc(F)c2)c1Cl 90%
O=C(O)COc1nn(-c2nc(F)ccc2F)c(-c2ccc(F)nc2)c1Br 90%
CCOC(=O)COc1nn(-c2ncccc2F)c(-c2ccc(F)nc2)c1F 90%
CCOC(=O)COc1nn(-c2ccncc2F)c(-c2ccc(F)nc2)c1Br 90%
COC(=O)CNC(=O)[C@@H](C)Oc1nn(-c2ccccn2)c(-c2cncc(F)c2)c1Cl 80%

State the recorded Post-emergence action against ALOMY in % for every item in the following list.
1. O=C(O)COc1nn(-c2nc(F)ccc2F)c(-c2cncc(F)c2)c1C1CC1
2. O=C(O)COc1nn(-c2nc(F)ccc2F)c(-c2cncc(F)c2)c1Br

[A]
90%
90%

[Q] Can you look up Post-emergence action against ALOMY in % on Alopecurus myosuroides (ALOMY) for Cc1cccc(-n2nc(OCC(=O)O)c(Br)c2-c2ccc(F)nc2)n1 ?
[A] 80%

* * *

test system: Alopecurus myosuroides (ALOMY); assay: Post-emergence herbicidal action against ALOMY; type: in vivo; settings: 80 g/ha, visual rating about 3 weeks after treatment vs untreated controls (100% = plants have died, 0% = like control plants)
value.type: Post-emergence action against ALOMY in % (%)
One number for each entry, in %.

// solved cases for Post-emergence action against ALOMY in % follow
compound	value.type	assay.result
C=C(COC(=O)COc1nn(-c2ccccn2)c(-c2ccc(F)nc2)c1Br)C(=O)OC	Post-emergence action against ALOMY in %	100
COC(=O)[C@@H](C)Oc1nn(-c2ccc(F)cn2)c(-c2ccc(F)nc2)c1Br	Post-emergence action against ALOMY in %	90
COCCOC(=O)COc1nn(-c2ncccc2F)c(-c2ccc(F)nc2)c1C1CC1	Post-emergence action against ALOMY in %	90
O=C(O)COc1nn(-c2nc(F)ccc2F)c(-c2ccc(F)nc2)c1Cl	Post-emergence action against ALOMY in %	90
COCCOC(=O)COc1nn(-c2ccccn2)c(-c2ccc(F)nc2)c1Br	Post-emergence action against ALOMY in %	90

State the recorded Post-emergence action against ALOMY in % for every item in the following list.
1. COC(=O)COc1nn(-c2ncccc2F)c(-c2ccc(F)nc2)c1C1CC1
2. CCOC(=O)COc1nn(-c2ncccc2F)c(-c2ccc(F)nc2)c1Br
3. CC(Oc1nn(-c2ccccn2)c(-c2ccc(F)nc2)c1C(F)(F)F)C(=O)O (centres unmarked)
4. C[C@@H](Oc1nn(-c2ncccc2F)c(-c2ccc(F)nc2)c1Br)C(=O)OCc1ccccn1
5. COC(=O)[C@@H](C)Oc1nn(-c2ncccc2Cl)c(-c2ccc(F)nc2)c1Br
6. CCOC(=O)COc1nn(-c2ccccn2)c(-c2ccc(F)nc2)c1Cl
7. CCOC(=O)[C@@H](C)Oc1nn(-c2ncccc2F)c(-c2cncc(F)c2)c1Br

[A]
100
90
80
90
90
100
80

* * *

tested on: Triticum aestivum (TRZAS); type: in vivo; settings: crop plant compatibility, 320 g/ha, effect vs untreated controls
Kindly supply the reported Post-emergence action against TRZAS in % values for the records listed here.
Numbers only, in %.

compound	Post-emergence action against TRZAS in % / %
O=C(O)COc1nn(-c2ccncc2)c(-c2ccc(F)nc2)c1Br	0

State the recorded Post-emergence action against TRZAS in % for every item in the following list.
1. CCOC(=O)COc1nn(-c2ccnc(Cl)c2)c(-c2ccc(F)nc2)c1Br
2. O=C(CSc1nn(-c2ccccn2)c(-c2cncc(F)c2)c1Br)NS(=O)(=O)c1ccccc1

[A]
[0, 0]

State the recorded Post-emergence action against TRZAS in % for every item in the following list.
1. COC(=O)CNC(=O)COc1nn(-c2ncccc2C(F)(F)F)c(-c2cncc(F)c2)c1Br
2. CCOC(=O)C[S+]([O-])c1nn(-c2ccccn2)c(-c2cncc(F)c2)c1Cl (centres unmarked)
3. COC(=O)CNC(=O)COc1nn(-c2cccc(C)n2)c(-c2ccc(F)nc2)c1Br
4. CCOC(=O)COc1nn(-c2ccccn2)c(-c2cncc(F)c2)c1Cl
5. Cc1cccc(-n2nc(OCC(=O)O)c(Br)c2-c2ccc(F)nc2)n1

[A]
1: 10; 2: 10; 3: 10; 4: 20; 5: 20

* * *

Kindly supply the reported Pre-emergence action against AMARE in % values for the records listed here.
system: Amaranthus retroflexus (AMARE); assay: Pre-emergence herbicidal action against AMARE; assay type: in vivo; details: 80 g/ha, visual scoring after about 3 weeks vs untreated controls
Answers are plain numbers, in %.

// solved cases for Pre-emergence action against AMARE in % follow
compound	value.units	Pre-emergence action against AMARE in %
COC(=O)COc1nn(-c2nc(F)ccc2F)c(-c2cncc(F)c2)c1Cl [Example I-216]	%	90
C[C@@H](Oc1nn(-c2ncccc2Cl)c(-c2ccc(F)nc2)c1Br)C(=O)O [Example I-25]	%	90
COC(=O)C(C)COC(=O)[C@@H](C)Oc1nn(-c2ccccn2)c(-c2cncc(F)c2)c1Cl (stereo partly drawn) [Example I-198]	%	100
COC(=O)C(C)COC(=O)C(C)Oc1nn(-c2ccccn2)c(-c2ccc(F)nc2)c1Cl (stereo not drawn) [Example I-291]	%	80
COC(=O)CNC(=O)[C@@H](C)Oc1nn(-c2ccccn2)c(-c2ccc(F)nc2)c1Cl [Example I-339]	%	100
CCOC(=O)COc1nn(-c2ncccc2F)c(-c2ccc(F)nc2)c1C1CC1 [Example I-40]	%	80
COC(=O)[C@@H](C)Oc1nn(-c2ccccn2)c(-c2ccnc(F)c2)c1Cl [Example I-19]	%	100
CCOC(=O)CCNC(=O)COc1nn(-c2ncccc2F)c(-c2ccc(OC)nc2)c1Br [Example I-47]	%	100
COC(=O)CCOC(=O)COc1nn(-c2ccccn2)c(-c2ccc(Cl)nc2)c1Cl [Example I-243]	%	80
CCOC(=O)COc1nn(-c2ncccc2F)c(-c2ccc(F)nc2)c1C(F)(F)F [Example I-56]	%	100

State the recorded Pre-emergence action against AMARE in % for every item in the following list.
1. CCOC(=O)COc1nn(-c2nc(F)ccc2F)c(-c2cncc(F)c2)c1Br [Example I-193]
2. COCCOC(=O)COc1nn(-c2ncccc2C)c(-c2cncc(F)c2)c1Br [Example I-212]

[A]
1: 80; 2: 90

State the recorded Pre-emergence action against AMARE in % for every item in the following list.
1. COC(=O)[C@@H](C)Oc1nn(-c2ccnc(Cl)c2)c(-c2ccc(F)nc2)c1Br [III-22]
2. COCCOC(=O)COc1nn(-c2ncccc2F)c(-c2ccc(F)nc2)c1Br [Example I-29]
3. C[C@@H](Oc1nn(-c2ncccc2F)c(-c2ccc(F)nc2)c1Br)C(=O)OCc1ccccn1 [Example I-52]
4. O=C(O)COc1nn(-c2ccccn2)c(-c2cncc(F)c2)c1Cl [Example I-81]
5. C[C@@H](Oc1nn(-c2nc(F)ccc2F)c(-c2ccc(F)nc2)c1Cl)C(=O)O [Example I-311]
6. COC(=O)[C@H](C)COC(=O)COc1nn(-c2ccccn2)c(-c2ccc(F)nc2)c1Br [Example I-76]
7. CC(C)N(C)S(=O)(=O)NC(=O)COc1nn(-c2ncccc2F)c(-c2ccc(F)nc2)c1Br [Example I-53]
8. COC(=O)[C@@H](C)Oc1nn(-c2ccccn2)c(-c2cncc(F)c2)c1Br [Example I-83]

[A]
[90, 90, 80, 80, 80, 90, 90, 90]

State the recorded Pre-emergence action against AMARE in % for every item in the following list.
1. O=C(O)COc1nn(-c2nc(F)ccc2F)c(-c2cncc(F)c2)c1C1CC1 [Example I-148]
2. O=C(COc1nn(-c2ncccc2F)c(-c2ccc(F)nc2)c1Br)OCc1ccccn1 [Example I-46]
3. CCOC(=O)COc1nn(-c2ncccc2C(F)(F)F)c(-c2ccc(F)nc2)c1Cl [Example I-325]

[A]
[100, 100, 100]

State the recorded Pre-emergence action against AMARE in % for every item in the following list.
1. CCOC(=O)COc1nn(-c2ccnc(Cl)c2)c(-c2ccc(F)nc2)c1Br [III-24]
2. COC(=O)COc1nn(-c2nc(F)ccc2F)c(-c2ccc(F)nc2)c1Br [Example I-369]

[A]
1. 100
2. 90
